- Assay Target: KRAS-WT (Homo sapiens, UniProt P01116)
- Sequence (P01116 with tags, fused parts or gaps isoform P01116-2): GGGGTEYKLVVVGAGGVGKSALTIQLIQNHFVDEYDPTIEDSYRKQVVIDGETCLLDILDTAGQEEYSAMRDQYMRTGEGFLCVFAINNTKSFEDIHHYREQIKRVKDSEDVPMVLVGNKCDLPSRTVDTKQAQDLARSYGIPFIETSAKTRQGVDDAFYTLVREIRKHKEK
- Assay Protocol: SOS-catalyzed nucleotide exchange assay (Procedure A, TR-FRET), KRAS-WT
- Type: biochemical
- Reported Conditions: nucleotide exchange, read-out: KRAS WT GNE IC50
Assay Readout: pIC50
Note: pIC50 values are expressed as the negative base-10 logarithm of concentration in M.

Worked set:
Cc1cc2[nH]ncc2c(-c2nccc3c2sc2nc(OC[C@@]45CCCN4C[C@H](F)C5)nc(NC4(CO)COC4)c23)c1C(F)(F)F ... 5.86
C[C@@]1(O)COCCN(c2nc(OC[C@@]34CCCN3C[C@H](F)C4)nc3sc4c(-c5c(C6(F)CC6)c(F)cc6[nH]ncc56)nccc4c23)C1 ... 7.04

Query block: Can you look up the measured pIC50 of `C[C@H]1C[C@@H](COc2nc(N3CCOC[C@@](C)(O)C3)c3c(n2)sc2c(-c4c(C5CC5)c(C(F)(F)F)cc5[nH]ncc45)nccc23)N(C)C1` for me?
Result block: 7.26

Query block: Same read-out for Cn1c2nc(OC[C@@]34CCCN3C[C@H](F)C4)nc(N3CCOC[C@@](C)(O)C3)c2c2ccnc(-c3c(C4CC4)c(Cl)cc4[nH]ncc34)c21 (single isomer, unassigned) ?
Result block: 7.19

Query block: Also need `Cc1cc2[nH]ncc2c(-c2nccc3c2sc2nc(OC[C@@]45CCCN4C[C@H](F)C5)nc(N4CCC[C@@](C)(O)C4)c23)c1C(F)(F)F` , thanks.
Result block: 6.61

Query block: And for `C[C@H]1CN(C[C@@]2(COc3nc(N4CCOC[C@@](C)(O)C4)c4c(n3)sc3c(-c5c(C6(F)CC6)c(Cl)cc6[nH]ncc56)nccc34)CC2(F)F)CCO1` ?
Result block: 6.16
